Reference source: paper PMC8843100

- Test system: MCF7
- Experimental Protocol: NCI-60 single dose screen, sulforhodamine B
- Type: cell-based, human
- Experimental Setup: Breast cancer MCF7; single dose 10^−5 M
- Protocol: In this research, all of the newly synthesised quinazolinones were subjected to in vitro anticancer screening by the National Cancer Institute (USA) against 60 different human cell lines including leukaemia, non-small cell lung cancer, colon cancer, CNS cancer, melanoma, ovarian cancer, renal cancer, prostate cancer, and breast cancer. The tested compounds were evaluated at a single dose (10^−5 M). […]
In this section we review reported GI% at 10^−5 M values for a set of compounds.
Measured Quantity: GI% at 10^−5 M (%)

Mol Smiles: O=C(CNn1c(COc2ccccc2)nc2ccccc2c1=O)Nc1ccccc1
Measured Quantity: GI% at 10^−5 M
Recorded Number: 15.7

Mol Smiles: O=c1c2ccccc2nc(COc2ccccc2)n1NS(=O)(=O)c1ccccc1
Measured Quantity: GI% at 10^−5 M
Recorded Number: 14.31

Mol Smiles: CN1CCN(CC(=O)Nn2c(COc3ccccc3)nc3ccccc3c2=O)CC1
Measured Quantity: GI% at 10^−5 M
Recorded Number: 57.64

Mol Smiles: Cc1ccc(S(=O)(=O)Nn2c(COc3ccccc3)nc3ccccc3c2=O)cc1
Measured Quantity: GI% at 10^−5 M
Recorded Number: 11.54

Mol Smiles: O=c1c2ccccc2nc(COc2ccccc2)n1NS(=O)(=O)c1ccc(Cl)cc1
Measured Quantity: GI% at 10^−5 M
Recorded Number: 58.11

Mol Smiles: COc1cc(C=Nn2c(COc3ccccc3)nc3ccccc3c2=O)ccc1O
Measured Quantity: GI% at 10^−5 M
Recorded Number: 22.94

----------
- System: T-47D
- Experimental Protocol: NCI-60 single dose screen, sulforhodamine B
- Type: cell-based, human
- Experimental Setup: Breast cancer T-47D; single dose 10^−5 M
Measured Quantity: GI% at 10^−5 M

Mol Smiles: COc1ccc(N2CCN(CC(=O)Nn3c(COc4ccccc4)nc4ccccc4c3=O)CC2)cc1
Result: – (– means GI < 10%)
//
Mol Smiles: O=C(CNn1c(COc2ccccc2)nc2ccccc2c1=O)Nc1ccccc1
Result: – (– means GI < 10%)
//
Mol Smiles: COc1ccc(NC(=O)CNn2c(COc3ccccc3)nc3ccccc3c2=O)cc1
Result: – (– means GI < 10%)
//
Mol Smiles: O=c1c2ccccc2nc(COc2ccccc2)n1NS(=O)(=O)c1ccc(Cl)cc1
Result: 25.18%
//
Mol Smiles: CN1CCN(CC(=O)Nn2c(COc3ccccc3)nc3ccccc3c2=O)CC1
Result: 32.2%
//
Mol Smiles: O=C(CN1CCN(c2ccccc2)CC1)Nn1c(COc2ccccc2)nc2ccccc2c1=O
Result: – (– means GI < 10%)

----------
- Test system: KM12
- Experimental Protocol: NCI-60 single dose screen, sulforhodamine B
- Assay type: cell-based, human
- Experimental Setup: Colon cancer KM12; single dose 10^−5 M

Mol Smiles: O=C(CN1CCN(c2ccccc2)CC1)Nn1c(COc2ccccc2)nc2ccccc2c1=O
GI% at 10^−5 M: – (– means GI < 10%)

Mol Smiles: COc1ccc(NC(=O)CNn2c(COc3ccccc3)nc3ccccc3c2=O)cc1
GI% at 10^−5 M: – (– means GI < 10%)

Mol Smiles: CN1CCN(CC(=O)Nn2c(COc3ccccc3)nc3ccccc3c2=O)CC1
GI% at 10^−5 M: 55.03%

Mol Smiles: O=c1c2ccccc2nc(COc2ccccc2)n1NS(=O)(=O)c1ccc(Cl)cc1
GI% at 10^−5 M: 44.77%

Mol Smiles: O=c1c2ccccc2nc(COc2ccccc2)n1N=CC=Cc1ccccc1
GI% at 10^−5 M: – (– means GI < 10%)

Mol Smiles: O=C(CNn1c(COc2ccccc2)nc2ccccc2c1=O)Nc1ccc(Cl)cc1
GI% at 10^−5 M: – (– means GI < 10%)

Mol Smiles: O=C(CNn1c(COc2ccccc2)nc2ccccc2c1=O)Nc1ccccc1
GI% at 10^−5 M: – (– means GI < 10%)

Mol Smiles: Cc1ccc(S(=O)(=O)Nn2c(COc3ccccc3)nc3ccccc3c2=O)cc1
GI% at 10^−5 M: – (– means GI < 10%)

Mol Smiles: O=c1c2ccccc2nc(COc2ccccc2)n1NS(=O)(=O)c1ccccc1
GI% at 10^−5 M: – (– means GI < 10%)

Mol Smiles: COc1cc(C=Nn2c(COc3ccccc3)nc3ccccc3c2=O)ccc1O
GI% at 10^−5 M: – (– means GI < 10%)

Mol Smiles: COc1ccc(N2CCN(CC(=O)Nn3c(COc4ccccc4)nc4ccccc4c3=O)CC2)cc1
GI% at 10^−5 M: – (– means GI < 10%)
